system: Zluc cells; assay: Cytotoxicity assay (MTS), Zluc cells; assay type: cell-based, human
MEASURED_PROPERTY: CC50

Measured CC50, CC(C)(CO)C(=O)SCCOP(=O)(NCc1ccccc1)OC[C@H]1O[C@@H](n2cnc3c(=O)[nH]c(N)nc32)[C@](C)(O)[C@@H]1O (single isomer, unassigned; diastereomer 2) [Diastereomer 2] : > 100 µM

====

system: rat primary hepatocytes; assay: Metabolic disposition of [^14C]-Compound 1 and [^14C]-2′-C-methyl guanosine in rat primary hepatocytes (incubation medium, cellular extracts, nucleotide levels); type: in vitro ADME, Sprague Dawley rat; conditions: rat hepatocytes (Rs458), 1 μM [^14C]-Compound 1, 1 h
MEASURED_PROPERTY: metabolites observed in medium (% of total radioactivity)

| MOLECULE | RESULT |
| --- | --- |
| CC(C)(CO)C(=O)SCCOP(N)(=O)OC[C@H]1O[C@@H](n2cnc3c(=O)[nH]c(N)nc32)[C@](C)(O)[C@@H]1O (mixture of isomers) | BLD |
| C[C@@]1(O)[C@H](O)[C@@H](COP(=O)(O)NCc2ccccc2)O[C@H]1n1cnc2c(=O)[nH]c(N)nc21 | 3.02% |
| C[C@@]1(O)[C@H](O)[C@@H](CO)O[C@H]1n1cnc2c(=O)[nH]c(N)nc21 [2′-C-methyl guanosine, 9-(2-C-methyl-β-D-ribofuranosyl)guanine, reference compound] | BLD |
| C[C@@]1(O)[C@H](O)[C@@H](COP(=O)(O)O)O[C@H]1n1cnc2c(=O)[nH]c(N)nc21 | BLD |

====

test: Incubation with rat liver cytosol; assay type: in vitro ADME; conditions: rat cytosol 1 mg/mL, 2 hours, 10 μM
Measured Residual compound following incubation with liver cytosol values are reported for all entries that follow.
Please format your answer as a value with the unit trailing.

See these solved cases before continuing.
| COMPOUND | RESULT |
| --- | --- |
| CC(C)(CO)C(=O)SCCOP(=O)(NCc1ccccc1)OC[C@H]1O[C@@H](n2cnc3c(=O)[nH]c(N)nc32)[C@](C)(O)[C@@H]1O (mixture of isomers) | 100% |
| C[C@@]1(O)[C@H](O)[C@@H](COP(=O)(O)NCc2ccccc2)O[C@H]1n1cnc2c(=O)[nH]c(N)nc21 | 0% |

Value of measured Residual compound following incubation with liver cytosol for the entry CC(C)(CO)C(=O)SCCOP(N)(=O)OC[C@H]1O[C@@H](n2cnc3c(=O)[nH]c(N)nc32)[C@](C)(O)[C@@H]1O (mixture of isomers) : 96%

Residual compound following incubation with liver cytosol in this record for "C[C@@]1(O)[C@H](O)[C@@H](COP(N)(=O)O)O[C@H]1n1cnc2c(=O)[nH]c(N)nc21" : 101%

====

tested on: monkey primary hepatocytes; assay: Metabolic disposition of [^14C]-Compound 1 and [^14C]-2′-C-methyl guanosine in monkey primary hepatocytes (incubation medium, cellular extracts, nucleotide levels); assay type: in vitro ADME, Cynomolgus monkey; details: monkey hepatocytes Cy230; 10 μM [^14C]-2′-C-methyl guanosine; 1 h
MEASURED_PROPERTY: Major metabolites observed in cellular extracts (% of total radioactivity)

| MOLECULE | RESULT |
| --- | --- |
| C[C@@]1(O)[C@H](O)[C@@H](CO)O[C@H]1n1cnc2c(=O)[nH]c(N)nc21 [2′-C-methyl guanosine, 9-(2-C-methyl-β-D-ribofuranosyl)guanine, reference compound] | 96.4 % of total radioactivity |

In plain terms, "C[C@@]1(O)[C@H](O)[C@@H](COP(=O)(O)OP(=O)(O)OP(=O)(O)O)O[C@H]1n1cnc2c(=O)[nH]c(N)nc21" has a documented Major metabolites observed in cellular extracts (% of total radioactivity) of 3.63 % of total radioactivity

====

system: human primary hepatocytes; test: Metabolic disposition of [^14C]-Compound 1 and [^14C]-2′-C-methyl guanosine in human primary hepatocytes (incubation medium, cellular extracts, nucleotide levels); format: in vitro ADME; settings: human hepatocytes Hu775; 1 μM [^14C]-2′-C-methyl guanosine; 1 h
Each item that follows carries a reported Major metabolites observed in cellular extracts (% of total radioactivity).

| COMPOUND | MEASUREMENT_TARGET | RESULT |
| --- | --- | --- |
| C[C@@]1(O)[C@H](O)[C@@H](COP(=O)(O)OP(=O)(O)OP(=O)(O)O)O[C@H]1n1cnc2c(=O)[nH]c(N)nc21 [Compound 7] | human primary hepatocytes | 5.36 % of total radioactivity |

For the next question, use this compound.
// Major metabolites observed in cellular extracts (% of total radioactivity) value for C[C@@]1(O)[C@H](O)[C@@H](CO)O[C@H]1n1cnc2c(=O)[nH]c(N)nc21 [2′-C-methyl guanosine, 9-(2-C-methyl-β-D-ribofuranosyl)guanine, reference compound] : 94.6 % of total radioactivity

====

Major metabolites observed in cellular extracts (% of total radioactivity) reference
test system: rat primary hepatocytes; assay: Metabolic disposition of [^14C]-Compound 1 and [^14C]-2′-C-methyl guanosine in rat primary hepatocytes (incubation medium, cellular extracts, nucleotide levels); format: in vitro ADME, Sprague Dawley rat; details: rat hepatocytes Rs448; 10 μM [^14C]-2′-C-methyl guanosine; 1 h

Worked set:
| MOLECULE | RESULT |
| --- | --- |
| C[C@@]1(O)[C@H](O)[C@@H](CO)O[C@H]1n1cnc2c(=O)[nH]c(N)nc21 [2′-C-methyl guanosine, 9-(2-C-methyl-β-D-ribofuranosyl)guanine, reference compound] | 93.6 % of total radioactivity |
| C[C@@]1(O)[C@H](O)[C@@H](COP(=O)(O)OP(=O)(O)O)O[C@H]1n1cnc2c(=O)[nH]c(N)nc21 | 1.24 % of total radioactivity |

Then there is this molecule:
Entry "C[C@@]1(O)[C@H](O)[C@@H](COP(=O)(O)OP(=O)(O)OP(=O)(O)O)O[C@H]1n1cnc2c(=O)[nH]c(N)nc21" ; Major metabolites observed in cellular extracts (% of total radioactivity) = 5.21 % of total radioactivity

====

test: Metabolite profile in rat liver; type: in vivo, male Sprague-Dawley rats; conditions: group 1 (IV dose) pooled liver, 6 h
MEASURED_PROPERTY: % HPLC (percent of HPLC peak area in the sample extract)

| MOLECULE | RESULT |
| --- | --- |
| C[C@@]1(O)[C@H](O)[C@@H](CO)O[C@H]1n1cnc2c(=O)[nH]c(N)nc21 [2′-C-methyl guanosine, 9-(2-C-methyl-β-D-ribofuranosyl)guanine, reference compound] | 14.6% |

molecule C[C@@]1(O)[C@H](O)[C@@H](COP(=O)(O)O)O[C@H]1n1cnc2c(=O)[nH]c(N)nc21 [Compound 5] , % HPLC (percent of HPLC peak area in the sample extract) observed: 63.1%

Recorded result, C[C@@]1(O)[C@H](O)[C@@H](COP(=O)(O)OP(=O)(O)O)O[C@H]1n1cnc2c(=O)[nH]c(N)nc21 [Compound 6] , % HPLC (percent of HPLC peak area in the sample extract): 20.1%

Consider C[C@@]1(O)[C@H](O)[C@@H](COP(=O)(O)OP(=O)(O)OP(=O)(O)O)O[C@H]1n1cnc2c(=O)[nH]c(N)nc21 [Compound 7] . Its measured % HPLC (percent of HPLC peak area in the sample extract) is 0.35%

====

assay: In vitro intracellular half-life of 2′-C-methyl guanosine-5′-triphosphate (Compound 7) in rat primary hepatocytes; type: in vitro ADME; conditions: primary hepatocytes (cellular extracts); rat hepatocytes Rs458; after 24 h incubation with 10 μM [^14C]-Compound 1; linear regression
MEASURED_PROPERTY: half-life at 10 μM (h)
Report the value in h with no unit label.

// half-life at 10 μM value for C[C@@]1(O)[C@H](O)[C@@H](COP(=O)(O)OP(=O)(O)OP(=O)(O)O)O[C@H]1n1cnc2c(=O)[nH]c(N)nc21 [Compound 7] : 6.61

====

system: monkey primary hepatocytes; test: Metabolic disposition of [^14C]-Compound 1 and [^14C]-2′-C-methyl guanosine in monkey primary hepatocytes (incubation medium, cellular extracts, nucleotide levels); type: in vitro ADME, Cynomolgus monkey; conditions: monkey hepatocytes (Cy234), 10 μM [^14C]-Compound 1, 4 h
MEASURED_PROPERTY: metabolites observed in cellular extracts (% of total radioactivity) (%)
All answers are understood in %, so give the number only.

| COMPOUND | NUMERIC_RESULT |
| --- | --- |
| C[C@@]1(O)[C@H](O)[C@@H](COP(=O)(O)OP(=O)(O)OP(=O)(O)O)O[C@H]1n1cnc2c(=O)[nH]c(N)nc21 [Compound 7] | 70.3 |

// sample C[C@@]1(O)[C@H](O)[C@@H](COP(=O)(O)NCc2ccccc2)O[C@H]1n1cnc2c(=O)[nH]c(N)nc21 [Compound 2] , its metabolites observed in cellular extracts (% of total radioactivity) was 1.25

Noted for C[C@@]1(O)[C@H](O)[C@@H](COP(=O)(O)OP(=O)(O)O)O[C@H]1n1cnc2c(=O)[nH]c(N)nc21 [Compound 6] : its metabolites observed in cellular extracts (% of total radioactivity) reads 17.1

Hey, just so you know, these numbers are from patent US20100003217A1.
